- experiment: FRG1 promoter luciferase signal modulators, primary screen, FRG1 inhibition for FSHD, cell-based, C2C12 myotubes, firefly/Renilla luciferase, luminescence (AID 1084)
- condition description: higher = more signal, called active from +8 up or from −8 down
Threshold check on z-score: at or above -0.8 gives class 1, strictly below gives class 0.

compound: CCOC(=O)C[C@H]1[C@H](OC(=O)c2ccc(-c3ccccc3)cc2)[C@@H](NC(=O)Cc2ccc(OC)cc2)c2cc(OCCCO)ccc2N1C(=O)Cc1ccc(OC)cc1
class assignment: class 1

compound: COc1cccc(/C=C(\C#N)C(=O)Nc2c(C)n(C)n(-c3ccccc3)c2=O)c1
class assignment: class 1

compound: CCOC(=O)C[C@H]1[C@H](OC(=O)c2ccccc2-c2ccccc2)[C@@H](NC(=O)c2ccccc2)c2cc(OCCCO)ccc2N1C(=O)c1ccccc1
class assignment: class 1

compound: CCCNC(=O)[C@@]1(Sc2ccc(C)cc2)CC(=O)N(C2CCCCC2)[C@@H]1c1ccc(CO)cc1I
class assignment: class 0

compound: CC1(C)C(=O)C(c2ccccc2)=C2CN3C(=O)N(CCc4ccccc4)C(=O)C3(Cc3ccc(C(F)(F)F)cc3)C=C21 (configuration not stated)
class assignment: class 1

compound: C=C(COC)/C(=C/C[C@@H](OC(=O)c1ccncc1)c1ccccc1OCCO)c1cc(C(=O)OC)ccc1OC
class assignment: class 0
